B1: Pistol ribozyme (parent)
chain: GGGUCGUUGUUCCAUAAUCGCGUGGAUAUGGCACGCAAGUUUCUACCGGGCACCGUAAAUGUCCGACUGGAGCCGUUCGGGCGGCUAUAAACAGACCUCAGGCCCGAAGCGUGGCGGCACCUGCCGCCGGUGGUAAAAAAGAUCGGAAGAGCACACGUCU

Variants of: B1
Test: aptazyme ON/OFF ratio, guanine; higher = stronger switching; co-transcriptional cleavage with and without guanine
Readings of aptazyme ON/OFF ratio for the listed variants
Lab note: write the figure by itself, no unit.

| Variant | aptazyme ON/OFF ratio |
| --- | --- |
| U7G U8G U10G C12G | 1.3 |

Query :: Quick check: aptazyme ON/OFF ratio of U7A C12G C13U ?
Result :: 1.27

Query :: Quick check: aptazyme ON/OFF ratio of U8C G9U C12A C13A ?
Result :: 1.28

Query :: Quick check: aptazyme ON/OFF ratio of U7G U8G U11C C13U ?
Result :: 1.25
